testedTarget: HLA-A*02:01
testSummary: IEDB peptide-MHC binding, purified MHC/competitive/radioactivity; bounds were set here for any values at or beyond the usual limits of such assays
conditions: source organism: Vaccinia virus WR
pIC50: −log10 of the molar value.
Kindly return met if reported pIC50 is no lower than 7; return not met if it is lower.

Exam item: Given TIDQTANVV , state whether its pIC50 is at least 7.
Marked response: not met

Exam item: Check this sequence for pIC50 at or above 7: GIYHDDLVV
Marked response: not met

Exam item: Is reported pIC50 greater than or equal to 7 here: YTGGYDVSL
Marked response: not met

Exam item: Could you tell me if the measured pIC50 of SVCNSLSQI reaches 7 or more?
Marked response: not met

Exam item: Test whether the sequence HLTENNLYI records pIC50 of 7 or higher.
Marked response: met

Exam item: Dear colleague, could you confirm whether YVTKKNNNI has pIC50 at or above 7?
Marked response: not met

Exam item: // inclusive: pIC50 at least 7? input: NLYKVYNGI
Marked response: not met

Exam item: Kindly determine if pIC50 recorded for VTYNIKPVIV is above or exactly 7.
Marked response: not met

Exam item: Identify whether the reported pIC50 of the following sequence is 7 or greater: IISYIILFIL
Marked response: not met

Exam item: Check this sequence for pIC50 at or above 7: LVITYCLVT
Marked response: not met

Exam item: Tell me whether pIC50 is at least 7 here: YLYALYSPL
Marked response: met

Exam item: Confirm if pIC50 reported for the sequence YLRGHTESI is 7 or above.
Marked response: met

Exam item: State whether the measured pIC50 reaches 7, counting equality as reaching it, for PIKFIAEFLV
Marked response: not met

Exam item: For this sequence, is measured pIC50 7 or higher? SICLDYIIV
Marked response: not met

Exam item: // inclusive: pIC50 at least 7? input: AMIHKTYIDV
Marked response: not met

Exam item: Decide: is the reported value of pIC50 for TMVDKPTEL equal to or greater than 7?
Marked response: not met

Exam item: Does pIC50 meet or surpass 7 for VTFINDYANL ?
Marked response: not met

Exam item: Decide: is the reported value of pIC50 for GIAHLLEHL equal to or greater than 7?
Marked response: not met

Exam item: Form field: pIC50 at least 7? Entry: FIVVATAAV
Marked response: met

Exam item: decide whether the reported pIC50 for SQYYFSMLV is at least 7.
Marked response: met

Exam item: pIC50 >= 7 for FIFTGITLFL ?
Marked response: met

Exam item: Could you verify whether the entry KLPTWLGAAI shows pIC50 of no less than 7?
Marked response: not met

Exam item: Decide: pIC50 of AVKDKNWTV >= 7?
Marked response: not met

Exam item: In plain terms: is recorded pIC50 at least 7 for FLQISRVNDL ?
Marked response: met

Exam item: Record IASILSLET ; criterion: pIC50 no lower than 7. Met?
Marked response: not met

Exam item: Does the reported pIC50 for LTREMGFLV fall at or above the 7 mark?
Marked response: not met

Exam item: Determine whether measured pIC50 meets or exceeds 7 for SMTENVEEDL
Marked response: not met

Exam item: Does the sequence ILDDNLYKV have recorded pIC50 that is 7 or more?
Marked response: met

Exam item: Check the entry FMYTKHSML : does pIC50 equal or exceed 7?
Marked response: met

Exam item: Determine whether measured pIC50 meets or exceeds 7 for NVSRVVECL
Marked response: not met

Exam item: Form field: pIC50 at least 7? Entry: LATLNTLITL
Marked response: not met

Exam item: Does pIC50 meet or surpass 7 for ILSAVAIFCI ?
Marked response: met

Exam item: For this sequence, is measured pIC50 7 or higher? TTIGTIAGGV
Marked response: not met

Exam item: Decide: pIC50 of RIDKTMKYI >= 7?
Marked response: not met

Exam item: Has ILEYLYIMRV a recorded pIC50 greater than or equal to 7?
Marked response: met

Exam item: Reported pIC50 reaches at least 7 for LLLETKTILV ?
Marked response: met

Exam item: Does the sequence DTCLLAISAV have recorded pIC50 that is 7 or more?
Marked response: met

Exam item: Confirm if pIC50 reported for the sequence MMQNDYGGM is 7 or above.
Marked response: not met

Exam item: Hi team, for DMDFDLNIFM , is the recorded pIC50 at or above 7?
Marked response: not met

Exam item: Hi, just wondering whether VITYCLVTHM shows pIC50 of 7 or higher.
Marked response: not met

---

testedTarget: HLA-A*02:02
testSummary: IEDB peptide-MHC binding, purified MHC/competitive/radioactivity; bounds were set here for any values at or beyond the usual limits of such assays
conditions: source organism: Vaccinia virus WR
Assign pIC50 to each entry below.
Hey, just a heads up that pIC50 is the negative log base 10 of the concentration in molar.

Exam item: Look up pIC50 for this sequence: ILHNIYRLFT
Marked response: 6.90

Exam item: What value of pIC50 has been reported for the following sequence? YISRDELWA
Marked response: 6.48

Exam item: Fill in the blank: the reported pIC50 of NVIEDITFL is ____.
Marked response: 6.84

Exam item: Item under review: IIYSKAGNIL . Reported pIC50?
Marked response: 8.07

Exam item: If you can, please state the reported pIC50 value of RIITILQDIV .
Marked response: 6.23

Exam item: What measured pIC50 goes with VIPDELIDVL ?
Marked response: 5.60

Exam item: Any idea what pIC50 was measured for IAGGVCYYLL ?
Marked response: 5.34

Exam item: I'd like to know its pIC50. The sequence in question is YAVLSEYET
Marked response: 5.75

Exam item: What value of measured pIC50 is listed for MLHNPTSET ?
Marked response: 5.38

Exam item: For the sequence shown here, YIMRVMANNV , give the reported pIC50.
Marked response: 7.64

Exam item: Request the reported pIC50 associated with KIILFQNNDI
Marked response: 5.79

Exam item: // lookup pIC50 for EQGDIALAL
Marked response: 6.15

Exam item: // pIC50 lookup, key: RIITILQDI
Marked response: 6.23

Exam item: Endpoint output: pIC50 of KLISEKETL . Value?
Marked response: 6.08

Exam item: What value of pIC50 has been reported for the following sequence? FLQISRVNDL
Marked response: 8.28

Exam item: Query (sequence): MAFILGIIIT ; field requested: pIC50
Marked response: 5.33

Exam item: Fill in the blank: the reported pIC50 of IMAFILGIII is ____.
Marked response: 6.20

Exam item: Field request: pIC50 | item: LIYRQLTSNV
Marked response: 7.10

Exam item: pIC50 for GVSGLYIPGT ?
Marked response: 6.85

Exam item: Entry under review: MTSTRTIILV . Reported pIC50?
Marked response: 5.70

Exam item: Sample LILSNKLLYA — what was its pIC50?
Marked response: 6.33

Exam item: Reported pIC50, sequence QAKKPEVRI : ____
Marked response: 6.13

Exam item: Give the measured pIC50 of MAFDISVNA .
Marked response: 6.72

Exam item: I have this sequence here, GVMYAFTTPL , and I need its recorded pIC50.
Marked response: 7.47

Exam item: Which measured pIC50 value corresponds to RVKQWVMDT ?
Marked response: 5.44

Exam item: Sample VLIAGIILLI — what was its pIC50?
Marked response: 8.06

Exam item: Given AILHNIYRL , state its recorded pIC50.
Marked response: 6.97

Exam item: # get_value(readout='pIC50', item= LQISRVNDL )
Marked response: 7.05

Exam item: Looking for the measured pIC50 of ILLILSCIFA , can you help?
Marked response: 6.35

Exam item: pIC50 lookup needed for AMIHKTYIDV , thanks.
Marked response: 6.47

Exam item: Any idea what its pIC50 is? The sequence is ETMYLTMKAI
Marked response: 5.88

Exam item: Need pIC50 of IVCIVAAVII , thanks.
Marked response: 5.84

Exam item: Looking for the measured pIC50 of NTCKPTILAT , can you help?
Marked response: 6.34

Exam item: Record request: pIC50 value, item FISIYSRPKI
Marked response: 7.64

Exam item: Consider the sequence shown here: KIMEIVSHL What is its recorded pIC50?
Marked response: 7.10

Exam item: Consider the sequence shown here: KLDDTGKKEL What is its recorded pIC50?
Marked response: 7.00

Exam item: For the sequence shown here, IVNTTYDFL , give the reported pIC50.
Marked response: 5.73

Exam item: Form field: reported pIC50 of NASKTINAL
Marked response: 6.93

Exam item: If you can, please state the reported pIC50 value of LATLNTLIT .
Marked response: 5.93

Exam item: Suppose we examine the sequence KTIAVSVYGA ; what pIC50 value has been reported?
Marked response: 6.44

Exam item: Find the recorded pIC50 belonging to KINEMVDELV and report it.
Marked response: 6.23

Exam item: Could you tell me which pIC50 is on file for CTSEIQNVT ?
Marked response: 6.73

Exam item: Sample GVCYYLLMHL — what was its pIC50?
Marked response: 7.02

Exam item: Any idea what its pIC50 is? The sequence is KLPTWLGAAI
Marked response: 6.99
